# ED50 values compiled below
Test system: postsynaptic α1-adrenoceptor
test-details: Vasoconstrictor (hypertensive) dose-response in anaesthetized pithed rat, i.v.
Assay type: in vivo, Wistar rat
condition-info: pithed rat, dose of base inducing 50% of maximal response

{"columns": ["compound", "target-or-test-system", "units-text", "ED50"],
 "data": [
  ["CCCCCc1ccc(C2CC2)c(OCC2=NCCN2)c1 [ND 83 203]", "postsynaptic α1-adrenoceptor", "µg/kg", 74.182],
  ["Clc1ccc(C2CC2)c(OCC2=NCCN2)c1 [ND 83 204]", "postsynaptic α1-adrenoceptor", "µg/kg", 0.644],
  ["Cc1ccc(C2CC2)c(OCC2=NCCN2)c1 [ND 83201]", "postsynaptic α1-adrenoceptor", "µg/kg", 0.630],
  ["CC(C)c1ccccc1OCC1=NCCN1 [Fenoxazoline]", "postsynaptic α1-adrenoceptor", "µg/kg", 1.790],
  ["c1ccc(C2CC2)c(OCC2=NCCN2)c1 [Cirazoline]", "postsynaptic α1-adrenoceptor", "µg/kg", 1.105],
  ["Brc1ccc(C2CC2)c(OCC2=NCCN2)c1 [ND 83 202]", "postsynaptic α1-adrenoceptor", "µg/kg", 4.422]
]}

Where do these numbers come from? They come from patent US4663340A.
